Data origin: PubChem BioAssay

- TEST: plasmodial surface anion channel blockers, osmotic lysis – cell-based, P. falciparum Indochina, OD700, 18 h, primary screen (AID 1157)
- CONDITION LABEL: P. falciparum Indochina infected erythrocytes, osmotic lysis OD700, 18 h, called active from +8 up or from −8 down
Calls of active or inactive are those of the source.
Respond using exactly one of the listed classes: T (active), F (inactive)

Past entries and their recorded results:
# COMPOUND, ASSIGNED CLASS
records = [
    ("C=CCN1C(=O)[C@]2(Cc3ccccc3)N=C(c3ccc(OCCCO)cc3)O[C@@H]2c2ccccc21", "T"),
    ("CS(=O)(=O)CCOC(=O)C1=CC(CCCO)=CC(C2CC2)N(Cc2cc3c(cc2Br)OCO3)C=C1C(=O)OCCS(C)(=O)=O (stereo not drawn)", "F"),
    ("O=C(NCCN1CCOCC1)[C@@H]1c2ccccc2C(=O)N(Cc2cc(C(F)(F)F)cc(C(F)(F)F)c2)[C@H]1c1ccc(CO)cc1", "F"),
]

Problem: Dear colleague, could you share the recorded outcome for O=C(NCc1ccccc1)[C@@H]1c2ccccc2C(=O)N(C2Cc3ccccc3C2)[C@H]1c1ccc(CO)cc1 when you have a moment?
Result: F

Problem: Dear colleague, could you share the recorded outcome for C=CC[C@]1(C(=O)NCc2ccccc2)N=C(c2ccc(OCCCO)cc2)O[C@H]1c1ccccc1CN=[N+]=[N-] when you have a moment?
Result: F

Problem: Dear colleague, could you share the recorded outcome for CC[C@@H]1C=C(C(=O)O)[C@H](c2cccc3ccccc23)N1S(=O)(=O)c1ccc(C)cc1 when you have a moment?
Result: F

Problem: Dear colleague, could you share the recorded outcome for O=C(NC1CC1)[C@@H]1c2ccccc2C(=O)N(Cc2cc(F)cc(C(F)(F)F)c2)[C@H]1c1ccc(CO)cc1 when you have a moment?
Result: F

Problem: Dear colleague, could you share the recorded outcome for O=C(O)C1N=C(c2ccc(OCCCO)cc2)N(c2ccccc2)O1 (stereo not drawn) when you have a moment?
Result: F

====

- TEST: probe aEGFR binding to arrayed compounds – biochemical, biotinylated probe, 635/667 nm fluorescence, primary screen (AID 1097);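 also: probe is a biotinylated anti-EGFR antibody binding compounds printed on slides; score combines fluorescence near 667 nm and signal to noise of each spot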
- CONDITION LABEL: small-molecule microarray, higher = more signal
MEASURED QUANTITY: composite z-score
The response must contain the number and no unit.

A selection of reference data follows.
# MOLECULE, composite z-score
rows = [
    ("O=C1O[C@H](c2ccccc2)[C@H](c2ccccc2)N2[C@H]1[C@@H](C(=O)NC[C@H](O)c1ccccc1)[C@]1(C(=O)Nc3ccc(C#CC4=CCCCC4)cc31)[C@H]2c1ccccc1OCCO", 0.032),
    ("CCCCN1CC=CC23O[C@@H]4C=CCOC(=O)[C@@H]4[C@H]2C(=O)N(CCCCCCO)[C@@H]3C1=O (some centres undefined)", -0.244),
    ("CCCCN1CC=CC23O[C@@H]4C=CCCOC(=O)C4[C@H]2C(=O)N(CCCCCO)[C@@H]3C1=O (some centres undefined)", -0.0987),
]

# next molecule below
Problem: Answer with the recorded composite z-score of O=C1[C@@]23C=C(Br)[C@H](C[C@@H]2COC3)[C@]12CO2 only.
Result: -0.272

====

As shown below, each of these molecules has a reported composite z-score value.
- EXPERIMENTAL TARGET: Calmodulin-1 (Homo sapiens)
- TEST: small molecules binding Ca-loaded calmodulin-1 – biochemical, small-molecule microarray, Cy5-labelled CALM1, plus calcium, artefact control for SMM control-protein annotation, profiling panel (AID 1112);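 also: score merges spot fluorescence with signal to noise from triplicate slides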
- CONDITION LABEL: Cy5-CALM1 binding fluorescence, higher = more signal
The response must contain the number and no unit.

# MOLECULE, composite z-score
measured = [
    ("CN(C)C(=O)[C@]1(Cc2ccccc2)N=C(c2ccc(OCCCO)cc2)O[C@@H]1c1ccccc1N=[N+]=[N-]", 0.393),
]

Problem: Answer with the recorded composite z-score of COC(=O)c1c(CC[C@@H](CO)NC(=O)NCCc2c[nH]c3ccccc23)oc(C(=O)Cc2ccccc2)c1C(=O)OC only.
Result: -0.46

Problem: Answer with the recorded composite z-score of C[N+](C)(C)CCCC[C@@H]1NC(=O)[C@H]2C[C@@H](C(=O)NCCCCCCNC(=O)CS)[C@@H](c3ccc(O)cc3)N2C1=O only.
Result: 0.55

Problem: Answer with the recorded composite z-score of C=C[C@H](C)[C@@H](OC(=O)Nc1ccc(SC)cc1)c1ccc(O)c2ccccc12 only.
Result: -0.0069

Problem: Answer with the recorded composite z-score of O=C1NC(=O)C2C1C=CC(C(O)c1ccc(-c3ccccc3)s1)N2Nc1ccc(Cl)cc1Cl (centres undefined) only.
Result: 1.03

Problem: Answer with the recorded composite z-score of COc1ccc([Si](C)(C)[C@@H]2[C@@H](CCn3cc(CCO)nn3)O[C@]3(C(=O)N(Cc4cccc(N5C(=O)c6cccc7cccc5c67)c4)c4ccccc43)[C@H]2C)cc1 only.
Result: 0.506

Problem: Answer with the recorded composite z-score of C=CC[C@]1(C(N)=O)N=C(c2ccc(OCCCO)cc2)O[C@H]1c1ccccc1 only.
Result: -0.665

Problem: Answer with the recorded composite z-score of COC(=O)[C@@]1(Cc2ccc(OC)cc2)[C@H]2c3cc(C(=O)N4CCCC4)n(Cc4nc5ccccc5[nH]4)c3C[C@H]2CN1C(=O)c1ccccc1 only.
Result: 1.54

Problem: Answer with the recorded composite z-score of [N-]=[N+]=Nc1ccccc1C[C@]1(C(=O)N2CCCCC2)COC(c2ccc(OCCCO)cc2)=N1 only.
Result: 0.234

Problem: Answer with the recorded composite z-score of COc1ccc([Si](C)(C)[C@H]2[C@H](CCO)O[C@@]3(C(=O)N(Cc4ccccc4)c4ccc(N5CCCCC5=O)cc43)[C@@H]2C)cc1 only.
Result: 0.167

Problem: Answer with the recorded composite z-score of C=C(CCCC)/C(=C/C[C@H](OC(=O)c1ccncc1)c1ccc(OCCO)cc1)c1cc(C(=O)OC)ccc1OC only.
Result: 0.176

Problem: Answer with the recorded composite z-score of O=C1C[C@@](C(=O)NCc2ccccc2)(c2ccc([N+](=O)[O-])cc2)[C@@H](c2ccc(CO)cc2)N1CC12CC3CC(CC(C3)C1)C2 only.
Result: 0.159

Problem: Answer with the recorded composite z-score of [N-]=[N+]=NCc1ccccc1[C@@H]1OC(c2ccc(OCCCO)cc2)=N[C@]1(CCS(=O)(=O)c1ccccc1)C(=O)N1CCOCC1 only.
Result: 0.443

Problem: Answer with the recorded composite z-score of C=CCN(Cc1ccccc1)C(=O)C(c1cccs1)N(C(=O)/C=C\C(=O)O)c1ccc(CCOCCO)cc1 (centres undefined) only.
Result: 0.665

Problem: Answer with the recorded composite z-score of O=C1OCCC/C=C\[C@H]2OC34C=CCN(c5ccc6ccccc6c5)C(=O)[C@H]3N(CCCCCO)C(=O)[C@@H]4C12 (some centres undefined) only.
Result: -0.645

====

- TEST: binders from COS7 lysate, DM2A8 probe, primary screen, torsin A project, cell lysate, small-molecule microarray, fluorescence 635/667 (AID 1065)
- CONDITION LABEL: higher = more signal, COS7 lysate expressing mutant human TOR1A
As shown below, each of these molecules has a reported composite z-score value.
The response must contain the number and no unit.

A selection of reference data follows.
# MOLECULE, composite z-score
records = [
    ("CCCCC(=C=CC[C@@H](O)c1ccc(CO)o1)CCO", 0.152),
    ("COCCCNC(=O)[C@]1(Cc2ccccc2)N=C(c2ccc(OCCCO)cc2)O[C@@H]1c1ccccc1CN=[N+]=[N-]", 0.719),
    ("CCCCN1CC=CC23O[C@@H]4/C=C\\CCCOC(=O)C4[C@H]2C(=O)N(CCCCCO)[C@@H]3C1=O (some centres undefined)", -0.465),
]

# next molecule below
Problem: Answer with the recorded composite z-score of COc1ccc([Si](C)(C)[C@H]2[C@H](CCO)O[C@@]3(C(=O)N(Cc4ccccc4)c4ccc(N5CCCCC5=O)cc43)[C@@H]2C)cc1 only.
Result: 0.455

====

As shown below, each of these molecules has a reported composite z-score value.
- Tested on: Sonic hedgehog protein (Shh)
- TEST: Sonic hedgehog microarray binding compounds – biochemical, small-molecule microarray, 635/667 nm fluorescence, primary screen (AID 1151);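 also: Shh protein binding to compounds spotted on small-molecule microarray slides; score combines spot fluorescence intensity with signal-to-noise across triplicate slides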
- CONDITION LABEL: 635 nm fluorescence, higher = more signal
The response must contain the number and no unit.

A selection of reference data follows.
# LINE NOTATION, composite z-score
rows = [
    ("COC(=O)[C@@]1(Cc2ccc(F)cc2)[C@H]2c3cc(C(=O)N(C)C)n(Cc4ccc(C)o4)c3C[C@H]2CN1C(=O)c1ccccc1", -0.81),
    ("COC(=O)[C@@]1(Cc2ccc(OC)cc2)[C@H]2c3cc(C(=O)N4CCCC4)n(CCSCCO)c3C[C@H]2CN1C(=O)c1ccccc1", -0.623),
]

Problem: Answer with the recorded composite z-score of CCCCC(=C=CC[C@@H](O)c1cccc(OCCO)c1)C[C@@H](O)c1ccccn1 only.
Result: 1.86
